Molecular target: porcine pancreatic lipase (triacylglycerol acyl hydrolase; EC 3.1.1.3) (Sus scrofa, UniProt P00591)
Sequence (P00591 1-450): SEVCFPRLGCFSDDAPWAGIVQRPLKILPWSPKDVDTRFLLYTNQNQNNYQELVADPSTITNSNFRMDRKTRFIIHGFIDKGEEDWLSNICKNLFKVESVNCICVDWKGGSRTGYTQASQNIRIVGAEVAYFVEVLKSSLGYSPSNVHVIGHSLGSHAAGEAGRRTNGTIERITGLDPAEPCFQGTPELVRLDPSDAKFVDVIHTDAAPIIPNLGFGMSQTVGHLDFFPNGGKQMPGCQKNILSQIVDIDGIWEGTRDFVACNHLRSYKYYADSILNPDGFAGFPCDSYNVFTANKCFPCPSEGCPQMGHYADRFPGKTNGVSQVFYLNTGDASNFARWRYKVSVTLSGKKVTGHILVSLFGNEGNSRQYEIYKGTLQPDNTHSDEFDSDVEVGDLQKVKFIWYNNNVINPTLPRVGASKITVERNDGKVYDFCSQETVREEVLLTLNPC
Assay: In vitro pancreatic lipase inhibition, 4-nitrophenyl butyrate substrate
Format: biochemical
Details: means ± SD (n = 3), PBS pH 7.2, 37 °C, OD 405 nm, read-out: IC50
Measured IC50 by item

| compound | result units | IC50 |
| --- | --- | --- |
| C/C(=C\COc1c2ccoc2cc2oc(=O)ccc12)CCC(O)C(C)(C)O (stereo not drawn) [Dihydroxybergamottin] | µM | 84.5 |
| Oc1ccc(/C=C/c2cc(O)cc3c2[C@@H](c2cc(O)cc(O)c2)[C@H](c2ccc(O)cc2)O3)cc1 [ε-Viniferin, Ɛ-Viniferin] | µM | 13.2 |
| COc1cc([C@H]2c3cc(O)c(OC)cc3C[C@@H](CO)[C@@H]2CO)ccc1O [Isolariciresinol] | µM | 12.3 |
